Measured values drawn from PubChem BioAssay (NCI) for this set.

# Tested on: RXF-631 renal
# procedure.text: NCI tumour cell line growth inhibition, 48 h
Below: a set of entries, each annotated with reported TGI.

compound: CCOc1ccc(N=Cc2ccc3ccccc3n2)cc1
TGI: > 100 µM

Query: Kindly state the measured TGI obtained for COc1ccc2c(c1)C=C(C(C)(C)C)NS2(=O)=O with RXF-631 renal.
Response: > 100 µM

Query: Let us now turn to CCOC(=O)C1=C(C)N(C2OC(COC(C)=O)C(OC(C)=O)C(OC(C)=O)C2OC(C)=O)C(=O)NC1c1ccccc1 (stereo not drawn)
Response: > 100 µM

* * *

# System: COLO 205 colon
# procedure.text: NCI tumour cell line growth inhibition, 48 h
// reported TGI for each item listed

The following compounds have reported results that may help.
compound: S=C1SCN(C2CCCCCCCCCCC2)CN1C1CCCCCCCCCCC1
tested.target: COLO 205 colon
TGI: > 100 µM
--
compound: CCNC1=C(NC(=O)CCl)C(=O)c2ccccc2C1=O
tested.target: COLO 205 colon
TGI: > 10 µM
--
compound: CN(/N=C/c1ccccc1C(=O)O)C1=NCCCCN1
tested.target: COLO 205 colon
TGI: > 100 µM
--
compound: COc1ccc(-c2nc(SC)n(C3OC(COC(C)=O)C(OC(C)=O)C(OC(C)=O)C3OC(C)=O)c(=O)c2C#N)cc1 (centres undefined)
tested.target: COLO 205 colon
TGI: > 100 µM
--
compound: COc1ccc(NC(=O)CC(=O)N2N=C(C)C(N=Nc3ccc(C(=O)O)cc3)C2=O)cc1 (centres undefined)
tested.target: COLO 205 colon
TGI: > 100 µM

Query: Please look up its TGI: O=P(O)(O)CC1OC(CO)C(O)C1O (centres undefined)
Response: > 100 µM

Query: Moving on to the next compound: CCOC1=NC(C(F)(F)F)(C(F)(F)F)N=C(N2CCCCC2)O1
Response: > 100 µM

Query: Item: CCOC(=O)C1=C(C)N(C2OC(COC(C)=O)C(OC(C)=O)C(OC(C)=O)C2OC(C)=O)C(=O)NC1c1ccccc1 (centres undefined)
Response: > 100 µM

Query: Entry O=C(CC1SC(=Nc2ccccc2Cl)NC1=O)Nc1ccc(Cl)cc1 (centres undefined) please
Response: 48.7 µM

Query: Can you handle C=CCOC1OC(CS(=O)(=O)O)C(OC(C)=O)C(OC(C)=O)C1OC(C)=O (centres undefined) next?
Response: > 100 µM

Query: Same question for O=C(COC(=O)c1cccc2c(=O)c3ccccc3[nH]c12)Nc1ccc(S(=O)(=O)Nc2ncccn2)cc1 please.
Response: > 100 µM

Query: Same question, CCOC(OCC)[C@H](N)[C@@H](O)[C@@H](O)[C@H]1COC(C)(C)O1 this time
Response: > 100 µM

Query: Here is the next compound: CC(C)C[C@H](NC(=O)CCc1cccc2ccccc12)B(O)O
Response: 36.3 µM

Query: Next record, please: CCCCN1CCC(O)(c2cc(C(=O)O)[nH]c2-c2cc(C)no2)C1=O (centres undefined)
Response: > 100 µM

Query: Follow-up item: CC1(C)/C(=N\Nc2ccc([N+](=O)[O-])cc2[N+](=O)[O-])C2CCC1C2 (centres undefined)
Response: > 100 µM

* * *

# Tested on: NCI-H460 lung
Select the correct class. Options are label 1 = active, label 0 = inactive and nothing else.

The following compounds have reported results that may help.
chemical.structure: C[C@@]1(O)CCC[C@H]1n1c(=O)c(C(F)F)cc2cnc(NC3CCN(S(C)(=O)=O)CC3)nc21
qualitative.label: label 1
//
chemical.structure: COc1cc2c(cc1OC)-c1ncc3cc(OC)c(OC)c(OC)c3c1C2
qualitative.label: label 0
//
chemical.structure: CC(C)=CCc1c(O)c(C(=O)CC(C)C)c(O)c2c(-c3ccccc3)cc(=O)oc12
qualitative.label: label 0

Query: recorded result category for C[C@@H]1OC(=O)NN=C1c1ccc(-c2ccc(F)cc2)c(C(F)(F)F)c1 in this test
Response: label 0

* * *

# Test system: SNB-75 CNS
# procedure.text: NCI tumour cell line growth inhibition, 48 h
Entries annotated with measured TGI
Numbers only; they are read as µM.

compound: Cc1ccc(-n2c3c(c4c(CN)c(O)ccc42)CCc2ccccc2C3=O)cc1
TGI, µM: 39.3

Query: Need TGI of C[C@@H]1OC(=O)NN=C1c1ccc(-c2ccc(F)cc2)c(C(F)(F)F)c1 , thanks.
Response: 20.4

Query: Then what about the compound COCC(=O)NC/C=C/c1ccc2ncnc(Nc3ccc(Oc4ccc(C)nc4)c(C)c3)c2c1 ?
Response: 27.2

* * *

TGI values for the compounds below.
# Test system: A498 renal
# procedure.text: NCI tumour cell line growth inhibition, 48 h
Where a SMILES comes first, the peptide text is derived from it. [ ]: non-standard residue; d: D form. The star is where a group is joined. ξ: configuration not given here. ξPhe(4-NO2) = NC(Cc1ccc([N+](=O)[O-])cc1)C(=O)O; Boc = CC(C)(C)OC(=O)*

Some solved cases for reference:
compound: Cc1c(C#N)c(N)n(C2OC(CO)C(O)C(O)C2O)c(=S)c1C#N (centres undefined)
measure: TGI
result: > 100 µM
//
compound: CCNC(=O)CNC(=O)C(Cc1ccc([N+](=O)[O-])cc1)NC(=O)OC(C)(C)C (centres undefined) (Boc-[ξPhe(4-NO2)]-Gly-NHEt)
measure: TGI
result: > 100 µM
//
compound: CCCCSC1=N/C(=C\c2ccc(N(C)C)cc2)C(Cl)=N1
measure: TGI
result: > 100 µM

Now for a further compound.
Query: // lookup TGI | system=A498 renal | key= CCOc1ccc(N=Cc2ccc3ccccc3n2)cc1
Response: > 100 µM

* * *

# System: HCC-2998 colon
# procedure.text: NCI tumour cell line growth inhibition, 48 h
measure: TGI

As a guide, the following entries are already answered.
molecule: COc1c(Cl)[c]([Hg][O]C(C)=O)c(NCC(C)=O)c(OC)[c]1[Hg][O]C(C)=O
TGI: 39.1 µM

molecule: COc1cc(OC)cc(C(=O)Cc2c(C(=O)c3ccccc3)c3ccccc3n2C(=O)c2ccccc2)c1
TGI: > 100 µM

Query: Please give the measured TGI for this molecule: ClCCc1ccccc1CC1=NCCc2ccccc21
Response: 62.5 µM

Query: O=C1NC(N2CCCCC2)=N/C1=C\c1ccccc1 ?
Response: > 100 µM

Query: What do you have for Clc1nc(-c2ccccc2)nc(Cl)c1Cl ?
Response: 20.5 µM

Query: And then CC(=O)OC1(C#N)CC2OC1C1N=NN(C(=O)OC(C)(C)C)C21 (centres undefined) , what is it?
Response: > 100 µM

Query: Here is the next molecule: OCCCCCNc1ccnc2cc(Cl)ccc12
Response: > 100 µM

Query: Now consider C/C(=N\NS(=O)(=O)c1c(C)cc(C)cc1C)c1ccc[n+]([O-])n1 and answer again.
Response: > 100 µM

Query: Also check COc1cc(C(=O)N(C(=S)OC23CC4CC(CC(C4)C2)C3)c2ccccc2)cc(OC)c1OC
Response: 61.4 µM

* * *

# Test system: 786-0 renal
# procedure.text: NCI tumour cell line growth inhibition, 48 h
measure: TGI

Completed entries (count: 6):
compound: CN(/N=C/c1ccccc1C(=O)O)C1=NCCCCN1
tested.target: 786-0 renal
TGI: > 100 µM
//
compound: COc1cc2c(cc1OC)-c1ncc3cc(OC)c(OC)cc3c1C2
tested.target: 786-0 renal
TGI: > 50 µM
//
compound: CC(=O)OCCCCn1cnc2c(Cl)nc(Nc3ccccc3)nc21
tested.target: 786-0 renal
TGI: > 100 µM
//
compound: S=C(S)N1CCN(c2ccccc2)CC1
tested.target: 786-0 renal
TGI: > 100 µM
//
compound: CCN(CC)CCC(=O)N1C/C(=C/c2ccccc2)C(=O)/C(=C\c2ccccc2)C1
tested.target: 786-0 renal
TGI: 9.78 µM
//
compound: COc1ccc(NS(=O)(=O)c2ccc(N=C3C=C(Nc4ccc(S(=O)(=O)Nc5ccc(OC)nn5)cc4)C(=O)c4ccccc43)cc2)nn1
tested.target: 786-0 renal
TGI: 31.7 µM

Query: Please tell me: TGI of COC(=O)CCCNC(=O)C(=O)c1c(O)c(O)c(C(C)C)c2cc(C)c(-c3c(C)cc4c(C(C)C)c(O)c(O)c(C(=O)C(=O)NCCCC(=O)OC)c4c3O)c(O)c12 , system 786-0 renal?
Response: 7.54 µM

Query: And what about the compound N.N.NCCCCCN.O=C([O-])CC(=O)[O-].O=C([O-])CC(=O)[O-].[Pt+4].[Pt+4] ?
Response: > 100 µM

Query: Now consider O=C1CN(c2ccccc2)C(=O)CN1CCN1CC(=O)N(c2ccccc2)CC1=O .
Response: > 100 µM

Query: Repeat with COc1cc(C(=O)N(C(=S)OC23CC4CC(CC(C4)C2)C3)c2ccccc2)cc(OC)c1OC
Response: > 100 µM

Query: And then Clc1nc(-c2ccccc2)nc(Cl)c1Cl , what is it?
Response: 22.8 µM

Query: Try this compound next: CC(C)C[C@H](NC(=O)CCc1cccc2ccccc12)B(O)O
Response: 28.3 µM

Query: Another compound to check: COc1cc2c3c(c1OC)C(=O)C(=O)C1=C3N(CCC1)CC2
Response: > 100 µM

Query: Moving on to O=C(CC1SC(=Nc2ccccc2Cl)NC1=O)Nc1ccc(Cl)cc1 (stereo not given)
Response: > 100 µM

Query: Try the compound Brc1ccc(C2CC3(c4ccccc4)ON=C(c4ccccc4)N3c3ccccc3S2)cc1 (stereo not given)
Response: > 100 µM
